Experiment: in vivo
Settings: female, beagle, dog, plasma, po, 80 mg/kg

{"molecule": "CCOc1ccccc1OC[C@@H]1CN(C(=O)OC(OC(=O)[C@H](N)C(C)C)C(C)C)CCO1 (stereo partly shown)", "MRT inf / h": 4.78}

====

Assay: Preclinical PK after intraperitoneal dosing of COMPOUND D, COMPOUND B and viloxazine
Type: in vivo, mouse
Conditions: mouse, plasma, ip, 10.948 mg/kg, COMPOUND B IP 10.948 mg/kg; mean; read-out: AUC0-last, plasma COMPOUND B
reported endpoint: AUC(0-t) (ng·h/mL)

{"molecule": "CCOc1ccccc1OC[C@@H]1CN(C(=O)OC(OC(=O)[C@@H](N)C(C)C)C(C)C)CCO1 (stereo partly shown)", "u": "ng·h/mL", "obs value": 4.35}

====

Entries and their microsomal CLint at 1 μM
Assay: Metabolic stability in human liver S9
Format: in vitro ADME
Settings: pH 7.2; human liver S9, 1 μM; read-out: CLint(LS9)
Experimental: Incubation Buffer (PBK): 50 mM potassium phosphate buffer was prepared from 1 M potassium phosphate buffer, pH 7.2. […] The dilution of […] was prepared by 90% methanol/10% DMSO, then 10 μM working solutions were prepared by diluting the 0.1 mM intermediates with 50 mM PBK. […] Prior to use, the stock solutions were brought to room temperature and thoroughly mixed. […] Cofactors Solutions: the mixture of cofactors solution was made at 10 mM of NADPH and 10 mM of UDPGA in PBK buffer. […]

{"compound": "CCOc1ccccc1OC[C@@H]1CN(C(=O)OC(C)OC(=O)[C@@H](N)C(C)C)CCO1 (stereo partly drawn)", "microsomal CLint at 1 μM, µL/min/mg": 241}
{"compound": "CCOc1ccccc1OC[C@@H]1CN(C(=O)OC(OC(=O)[C@@H](N)C(C)C)C(C)C)CCO1 (stereo partly drawn)", "microsomal CLint at 1 μM, µL/min/mg": 179}
{"compound": "CCOc1ccccc1OC[C@@H]1CN(C(=O)OC(OC(=O)[C@H](N)C(C)C)C(C)C)CCO1 (stereo partly drawn)", "microsomal CLint at 1 μM, µL/min/mg": 171}

====

Assay: Preclinical PK after intraperitoneal dosing of COMPOUND D, COMPOUND B and viloxazine
Assay type: in vivo, mouse
Conditions: mouse, plasma, ip, 10.948 mg/kg, COMPOUND B IP 10.948 mg/kg; mean; read-out: MRT0-last, plasma COMPOUND B

{"compound": "CCOc1ccccc1OC[C@@H]1CN(C(=O)OC(OC(=O)[C@@H](N)C(C)C)C(C)C)CCO1 (stereo partly shown) [COMPOUND B]", "MRT last (min)": 22.3}

====

Test: Preclinical PK after intraperitoneal dosing of COMPOUND D, COMPOUND B and viloxazine
Type: in vivo, mouse
Details: mouse, plasma, ip, 10.948 mg/kg, COMPOUND B IP 10.948 mg/kg; 0.250 h; individual mice; read-out: Plasma concentration of COMPOUND B
reported endpoint: concentration at 0.25 h (ng/mL)

{"molecule": "CCOc1ccccc1OC[C@@H]1CN(C(=O)OC(OC(=O)[C@@H](N)C(C)C)C(C)C)CCO1 (stereo partly shown)", "reported endpoint": "concentration at 0.25 h", "obs value": 25.4}

====

Assay: in vivo
Conditions: female, beagle, dog, plasma, po, 80 mg/kg

{"molecule": "CCOc1ccccc1OC[C@@H]1CN(C(=O)OC(OC(=O)[C@H](N)C(C)C)C(C)C)CCO1 (stereo partly shown)", "u": "ng/mL", "Cmax": 308}

====

Entries and their half-life at 1 μM
Assay: Metabolic stability in human liver S9
Format: in vitro ADME
Conditions: pH 7.2; human liver S9, 1 μM

{"molecule": "CCOc1ccccc1OC[C@@H]1CN(C(=O)OC(C)OC(=O)[C@@H](N)C(C)C)CCO1 (stereo partly drawn) [COMPOUND A]", "half-life at 1 μM": "5.76 min"}
{"molecule": "CCOc1ccccc1OC[C@@H]1CN(C(=O)OC(OC(=O)[C@@H](N)C(C)C)C(C)C)CCO1 (stereo partly drawn) [COMPOUND B]", "half-life at 1 μM": "7.74 min"}
{"molecule": "CCOc1ccccc1OC[C@@H]1CN(C(=O)OC(OC(=O)[C@H](N)C(C)C)C(C)C)CCO1 (stereo partly drawn) [COMPOUND C]", "half-life at 1 μM": "8.12 min"}

====

Entries and their half-life at 2 μM
Assay: In vitro stability in human plasma
Format: in vitro ADME
Conditions: human plasma, 2.0 μM

{"molecule": "CCOc1ccccc1OC[C@@H]1CN(C(=O)OC(OC(=O)[C@@H](N)C(C)C)C(C)C)CCO1 (stereo partly drawn)", "half-life at 2 μM": "> 187 min"}
{"molecule": "CCOc1ccccc1OC[C@@H]1CN(C(=O)OC(C)OC(=O)[C@@H](N)C(C)C)CCO1 (stereo partly drawn)", "half-life at 2 μM": "94.9 min"}
{"molecule": "CCOc1ccccc1OC[C@@H]1CN(C(=O)OC(OC(=O)[C@H](N)C(C)C)C(C)C)CCO1 (stereo partly drawn)", "half-life at 2 μM": "> 187 min"}

====

Assay: in vivo
Conditions: male, beagle, dog, plasma, po, 80 mg/kg
reported endpoint: half-life (h)

{"compound": "CCOc1ccccc1OC[C@@H]1CN(C(=O)OC(OC(=O)[C@H](N)C(C)C)C(C)C)CCO1 (stereo partly shown) [COMPOUND C]", "reported endpoint": "half-life", "obs value": 2.94}

====

Test: Cellular and nuclear receptor functional assays
Type: cell-based
Settings: apparent dissociation constant, modified Cheng Prusoff equation; human recombinant (CHO cells); read-out: kB, 5-HT2B(h) (antagonist effect)

{"compound": "CCOc1ccccc1OC[C@@H]1CN(C(=O)OC(OC(=O)[C@@H](N)C(C)C)C(C)C)CCO1 (some centres unmarked)", "u": "µM", "Kb": 2.1}
{"compound": "CCOc1ccccc1OCC1CN(C(=O)OC(OC(=O)[C@@H](N)C(C)C)C(C)C)CCO1 (some centres unmarked)", "u": "µM", "Kb": 0.63}
{"compound": "CCOc1ccccc1OCC1CN(C(=O)OC(C)OC(=O)[C@H](N)C(C)C)CCO1 (some centres unmarked)", "u": "µM", "Kb": 0.75}
{"compound": "CCOc1ccccc1OC[C@@H]1CN(C(=O)OC(C)OC(=O)[C@@H](N)C(C)C)CCO1 (some centres unmarked)", "u": "µM", "Kb": 1}
{"compound": "CCOc1ccccc1OC[C@@H]1CN(C(=O)OC(OC(=O)[C@H](N)C(C)C)C(C)C)CCO1 (some centres unmarked)", "u": "µM", "Kb": 2}

====

Entries and their microsomal CLint at 1 μM
Test: Metabolic stability in rat liver S9
Format: in vitro ADME, Sprague Dawley rat
Conditions: Sprague-Dawley, pH 7.2; 1 μM in SD Rat liver S9 fractions; read-out: CLint(mic.)
reported endpoint: microsomal CLint at 1 μM (µL/min/mg)

{"compound": "CCOc1ccccc1OCC1CN(C(=O)OC(C)OC(=O)[C@H](N)C(C)C)CCO1 (some centres unmarked) [COMPOUND D]", "obs value": 148}
{"compound": "CCOc1ccccc1OCC1CN(C(=O)OC(OC(=O)[C@@H](N)C(C)C)C(C)C)CCO1 (some centres unmarked) [COMPOUND E]", "obs value": 290}

====

Experiment: Preclinical PK after intraperitoneal dosing of COMPOUND D, COMPOUND B and viloxazine
Type: in vivo, mouse
Settings: CD-1, mouse, plasma, ip, 10.978 mg/kg, COMPOUND D IP 10.978 mg/kg; 0.500 h; individual mice; read-out: Plasma concentration of COMPOUND D

{"compound": "CCOc1ccccc1OCC1CN(C(=O)OC(C)OC(=O)[C@H](N)C(C)C)CCO1 (stereo partly shown)", "concentration at 0.5 h [ng/mL]": 1.12}

====

Test: Preclinical PK after intraperitoneal dosing of COMPOUND D, COMPOUND B and viloxazine
Assay type: in vivo, mouse
Settings: CD-1, mouse, plasma, ip, 10.978 mg/kg, COMPOUND D IP 10.978 mg/kg; individual mice; read-out: Cmax, plasma COMPOUND D
reported endpoint: Cmax (ng/mL)

{"molecule": "CCOc1ccccc1OCC1CN(C(=O)OC(C)OC(=O)[C@H](N)C(C)C)CCO1 (stereo partly shown)", "reported endpoint": "Cmax", "obs value": 5.74}
